target-system: T1, CRBN, Q96SW2;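 further: pooled lentiviral library of zinc finger degron-EGFP fusions in mCherry-positive Jurkat cells, FACS-sorted after compound exposure, with degron abundance counted by next-generation sequencing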
T1 chain: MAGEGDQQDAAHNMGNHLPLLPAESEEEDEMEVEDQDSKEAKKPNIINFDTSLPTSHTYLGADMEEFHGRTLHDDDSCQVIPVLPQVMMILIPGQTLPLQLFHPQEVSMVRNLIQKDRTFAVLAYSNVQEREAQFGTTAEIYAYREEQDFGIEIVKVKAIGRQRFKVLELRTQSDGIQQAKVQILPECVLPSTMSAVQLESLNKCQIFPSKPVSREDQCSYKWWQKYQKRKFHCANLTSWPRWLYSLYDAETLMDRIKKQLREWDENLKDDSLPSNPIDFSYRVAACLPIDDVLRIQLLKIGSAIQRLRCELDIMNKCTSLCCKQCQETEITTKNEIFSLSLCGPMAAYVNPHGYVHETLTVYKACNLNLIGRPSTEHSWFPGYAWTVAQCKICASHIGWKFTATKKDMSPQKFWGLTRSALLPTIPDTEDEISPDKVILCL
assay-summary: log2 fold change of degron read counts, EGFP-low vs EGFP+ sorted cells (limma voom), compound-induced degradation; higher = more compound-induced degradation of the degron-EGFP fusion; degrons are variants of IKZF1/3 zinc finger 2; compound dose not given here
run-parameters: Jurkat; 18 h; compound: compound 22 (5-morpholino-thalidomide)
Over roughly 8,300 sequences, “log2 fold change of degron read counts, EGFP-low vs EGFP+ sorted cells (limma voom), compound-induced degradation” has its median near -1.1; the highest 2% begin near 3.2. Many of the other results were omitted from the sample, so the highest values are more common in it than they were.
Where log2 fold change of degron read counts equals or exceeds 2, the correct label is Criterion met; where it does not, the label is Criterion not met.

biosequence="FFCEVCGAGFTQKGNLLRHIKL [46F_47F_49E_50V_52G_53A_54G_55F_67L_, Q9UKT9]" label_value="Criterion met"
biosequence="FRCPICGAIFTQKGNLLRHIKL [46F_47R_49P_50I_52G_53A_54I_55F_67L_, Q9UKT9]" label_value="Criterion not met"
biosequence="FYCEVCGAGFTQKGNLLRHIKL [46F_47Y_49E_50V_52G_53A_54G_55F_67L_, Q9UKT9]" label_value="Criterion met"
biosequence="FSCNICGAEFTQKGNLLRHIKL [46F_47S_49N_50I_52G_53A_54E_55F_67L_, Q9UKT9]" label_value="Criterion not met"
biosequence="FDCDICGAAFTQKGNLLRHIKL [46F_47D_49D_50I_52G_53A_54A_55F_67L_, Q9UKT9]" label_value="Criterion not met"
biosequence="FKCEVCGAPFTQKGNLLRHIKL [46F_47K_49E_50V_52G_53A_54P_55F_67L_, Q9UKT9]" label_value="Criterion not met"
biosequence="FWCPICGANFTQKGNLLRHIKL [46F_47W_49P_50I_52G_53A_54N_55F_67L_, Q9UKT9]" label_value="Criterion met"
biosequence="FWCDQCGAQFTQKGNLLRHIKL [46F_47W_49D_50Q_52G_53A_54Q_55F_67L_, Q9UKT9]" label_value="Criterion met"
biosequence="FQCEVCGAGFTQKGNLLRHIKL [46F_47Q_49E_50V_52G_53A_54G_55F_67L_, Q9UKT9]" label_value="Criterion not met"
biosequence="FECEVCGAGFTQKGNLLRHIKL [46F_47E_49E_50V_52G_53A_54G_55F_67L_, Q9UKT9]" label_value="Criterion not met"
